I'd be grateful if you could share measured IC50 for these entries.
target: human recombinant HDAC6 (Homo sapiens); construct: purchased Calbiochem 382180; assay: HDAC6 enzyme activity inhibition assay (HDAC Fluorimetric Drug Discovery Kit); format: biochemical; conditions: human recombinant HDAC6, same protocol as HDAC1; read-out: HDAC6
API: value field is a number in nM; no unit string.

// returns reported IC50 for input O=C(N1CCN(C2COC2)CC1)N(Cc1ccc(-c2nnc(C(F)F)o2)cc1)c1ccc(F)cc1 [Compound 21939] 161

State the recorded IC50 for this entry: O=C(N1CCS(=O)(=O)CC1)N(Cc1ccc(-c2nnc(C(F)(F)F)o2)cc1)c1ccccc1C(F)(F)F [Compound 21449] 1530

What IC50 value was documented for this compound, CCN(CC)c1ccc(N(Cc2ccc(-c3nnc(C(F)F)o3)cc2F)C(=O)N2CCS(=O)(=O)CC2)cc1 [Compound 21553] ? 697

// IC50 lookup, key: Cn1ncc2cccc(N(Cc3ccc(-c4nnc(C(F)F)o4)cc3F)C(=O)N3CCS(=O)(=O)CC3)c21 [Compound 21708] 60

====

What HDAC6 selectivity (fold) was measured for each of the following?
biological target: human recombinant HDAC6 (Homo sapiens); construct: purchased Calbiochem 382180; assay: HDAC6 enzyme activity inhibition assay (HDAC Fluorimetric Drug Discovery Kit); type: biochemical; details: HDAC6 over HDAC1
Enter your answer as a number in fold; do not include the unit.

Need HDAC6 selectivity (fold), item Cn1ccc2cc(-c3ccc(N(Cc4ccc(-c5nnc(C(F)(F)F)o5)cc4F)C(=O)N4CCS(=O)(=O)CC4)cc3)ccc21 [Compound 21521] 18

Entry CN1CCN(C(=O)N(Cc2ccc(-c3nnc(C(F)F)o3)cc2F)c2cccc(-c3ccccc3)c2)CC1 [Compound 21533] has what HDAC6 selectivity (fold)? 70

Given the molecule COc1cccc(N(Cc2ccc(-c3nnc(C(F)(F)F)o3)cc2F)C(=O)N2CCS(=O)(=O)CC2)c1 [Compound 21481] , what is its reported HDAC6 selectivity (fold)? 172

Requested field: HDAC6 selectivity (fold). Item: Cn1ncc2ccc(-c3ccc(N(Cc4ccc(-c5nnc(C(F)F)o5)cc4)C(=O)N4CCS(=O)(=O)CC4)cc3)cc21 [Compound 21488] 90

Which HDAC6 selectivity (fold) is listed for COc1ccc(N(Cc2ccc(-c3nnc(C(F)(F)F)o3)cc2F)C(=O)N2CCS(=O)(=O)CC2)cc1 [Compound 21477] ? 137

Returns the measured HDAC6 selectivity (fold) for the input molecule. Input: O=C(N1CCS(=O)(=O)CC1)N(Cc1ccc(-c2nnc(C(F)(F)F)o2)cc1F)c1ccc2c(c1)CCO2 [Compound 21543] 64

Any idea what its HDAC6 selectivity (fold) is? The molecule is O=C(N1CCS(=O)(=O)CC1)N(Cc1ccc(-c2nnc(C(F)F)o2)cc1)c1ccccc1F [Compound 21448] 278

HDAC6 selectivity (fold) for O=C(N1CCS(=O)(=O)CC1)N(Cc1ccc(-c2nnc(C(F)F)o2)cc1)c1ccccc1C(F)(F)F [Compound 21450] ? 19

Consider the molecule shown here: CCN1CCN(C(=O)N(Cc2ccc(-c3nnc(C(F)(F)F)o3)cc2)c2ccc(F)cc2)CC1 [Compound 21868] What is its recorded HDAC6 selectivity (fold)? 172

// lookup HDAC6 selectivity (fold) for O=C(N1CCOCC1)N(Cc1ccc(-c2nnc(C(F)F)o2)cc1F)c1ccc(Cl)cc1 [Compound 21849] 95

Record request: HDAC6 selectivity (fold) value, item CCN1CCN(C(=O)N(Cc2ccc(-c3nnc(C(F)(F)F)o3)cc2)c2cccc(Cl)c2)CC1 [Compound 21860] 82

What does the data say about its HDAC6 selectivity (fold)? Entry: CC(=O)N1CC2(CCN(C(=O)N(Cc3ccc(-c4nnc(C(F)(F)F)o4)cc3)c3ccccc3)CC2)C1 [Compound 21418] 65

Could you tell me which HDAC6 selectivity (fold) is on file for O=C(NCCN1CCC(Cc2ccccc2)CC1)N(Cc1ccc(-c2nnc(C(F)F)o2)cc1F)c1ccccc1 [Compound 22004] ? 24

Consider the molecule shown here: C[C@@H]1CN(Cc2ccccc2)C[C@H](C)N1Cc1ccc(N(Cc2ccc(-c3nnc(C(F)F)o3)cc2F)C(=O)N2CCS(=O)(=O)CC2)cc1 [Compound 21925] What is its recorded HDAC6 selectivity (fold)? 12

Request the reported HDAC6 selectivity (fold) associated with O=C(N1CCOCC1)N(Cc1ccc(-c2nnc(C(F)F)o2)cn1)c1ccc(Cl)cc1 [Compound 21847] 1811

Requested field: HDAC6 selectivity (fold). Item: CN1CCN(C(=O)N(Cc2ccc(-c3nnc(C(F)F)o3)cc2F)c2cccc(-c3ccoc3)c2)CC1 [Compound 21534] 175

Name the reported HDAC6 selectivity (fold) value associated with the molecule CN1CCN(C(=O)N(Cc2ccc(-c3nnc(C(F)F)o3)cc2F)c2cccc(Cl)c2)CC1 [Compound 21467] 323

Request the reported HDAC6 selectivity (fold) associated with Cc1ccc(N(Cc2ccc(-c3nnc(C(F)F)o3)cn2)C(=O)N2CCN(C)CC2)cc1 [Compound 21598] 238

====

Please go through the items and note down their HDAC6 selectivity (fold).
biological target: human recombinant HDAC6 (Homo sapiens, UniProt Q9UBN7); construct: purchased Calbiochem 382180; assay: HDAC6 enzyme activity inhibition assay (HDAC Fluorimetric Drug Discovery Kit); type: biochemical; conditions: HDAC6 over HDAC1
Sequence (Q9UBN7 whole entry): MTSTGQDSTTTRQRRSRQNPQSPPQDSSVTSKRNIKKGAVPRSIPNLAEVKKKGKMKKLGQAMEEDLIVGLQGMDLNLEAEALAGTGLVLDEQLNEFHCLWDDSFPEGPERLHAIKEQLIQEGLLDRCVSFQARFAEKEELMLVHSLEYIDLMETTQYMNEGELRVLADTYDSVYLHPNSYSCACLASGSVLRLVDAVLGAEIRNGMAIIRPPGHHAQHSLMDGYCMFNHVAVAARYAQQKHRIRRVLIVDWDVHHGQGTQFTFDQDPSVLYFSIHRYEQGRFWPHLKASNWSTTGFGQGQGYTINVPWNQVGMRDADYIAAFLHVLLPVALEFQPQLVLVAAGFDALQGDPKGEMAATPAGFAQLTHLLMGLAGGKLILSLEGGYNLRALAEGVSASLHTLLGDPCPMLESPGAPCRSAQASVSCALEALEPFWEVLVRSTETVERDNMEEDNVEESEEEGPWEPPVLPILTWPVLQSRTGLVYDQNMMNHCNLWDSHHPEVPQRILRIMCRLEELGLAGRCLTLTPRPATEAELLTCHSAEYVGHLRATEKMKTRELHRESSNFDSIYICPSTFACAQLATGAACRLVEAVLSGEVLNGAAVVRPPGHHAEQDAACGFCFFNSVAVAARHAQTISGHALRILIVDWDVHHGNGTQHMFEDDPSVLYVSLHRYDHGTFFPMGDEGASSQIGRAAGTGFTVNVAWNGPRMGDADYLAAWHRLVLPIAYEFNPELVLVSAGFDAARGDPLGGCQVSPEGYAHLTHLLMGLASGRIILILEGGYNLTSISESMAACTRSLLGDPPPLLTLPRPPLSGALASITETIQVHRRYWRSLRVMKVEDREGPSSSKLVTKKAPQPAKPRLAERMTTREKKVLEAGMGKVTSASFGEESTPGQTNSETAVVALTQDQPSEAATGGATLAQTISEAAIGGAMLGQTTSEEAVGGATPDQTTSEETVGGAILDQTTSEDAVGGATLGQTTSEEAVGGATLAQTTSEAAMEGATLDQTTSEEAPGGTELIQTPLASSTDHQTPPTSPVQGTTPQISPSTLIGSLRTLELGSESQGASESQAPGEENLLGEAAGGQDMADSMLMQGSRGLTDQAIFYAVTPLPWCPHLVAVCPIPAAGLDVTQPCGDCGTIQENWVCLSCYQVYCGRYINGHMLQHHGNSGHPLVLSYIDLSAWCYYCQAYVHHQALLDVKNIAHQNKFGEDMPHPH
Number in fold, nothing else.

Fill in the blank: the reported HDAC6 selectivity (fold) of O=C(N1CCOCC1)N(Cc1ccc(CCc2nnc(C(F)(F)F)o2)cc1)c1ccccc1 is ____. 1

# input molecule: O=C(Oc1ccccc1)N(Cc1ccc(-c2nnc(C(F)F)o2)cc1)c1ccccc1 ; wanted: its HDAC6 selectivity (fold) 59

Suppose we examine the molecule CC(C)(C)CN1CCN(Cc2ccc(N(Cc3ccc(-c4nnc(C(F)(F)F)o4)cc3F)C(=O)N3CCS(=O)(=O)CC3)cc2)CC1 ; what HDAC6 selectivity (fold) value has been reported? 140

Item under review: O=C(N1CCS(=O)(=O)CC1)N(Cc1ccc(-c2nnc(C(F)(F)F)o2)cc1)c1ccc(-c2ccoc2)cc1 . Reported HDAC6 selectivity (fold)? 25

Look up HDAC6 selectivity (fold): COCCN1CCN(CCNC(=O)N(Cc2ccc(-c3nnc(C(F)F)o3)cc2F)c2ccccc2)CC1 109

Which HDAC6 selectivity (fold) value belongs to CCCCN(Cc1ccc(-c2nnc(C(F)(F)F)o2)cc1)C(=O)N1CCOCC1 ? 20

So what's the measured HDAC6 selectivity (fold) for this one? O=C(N1CCOCC1)N(Cc1ccc(-c2nnc(C(F)F)o2)cn1)c1ccc(F)cc1 1689

What value of measured HDAC6 selectivity (fold) is listed for CCN1CCN(C(=O)N(Cc2ccc(-c3nnc(C(F)F)o3)cc2F)c2cccc(F)c2)CC1 ? 303

Please give the measured HDAC6 selectivity (fold) for this molecule: C[C@@H]1CN(CCNC(=O)N(Cc2ccc(-c3nnc(C(F)F)o3)cc2F)c2ccccc2)C[C@H](C)N1 133

Could you share which HDAC6 selectivity (fold) value was measured for O=C(NCCN1CCN(CCCO)CC1)N(Cc1ccc(-c2nnc(C(F)F)o2)cc1F)c1ccccc1 ? 153

Which HDAC6 selectivity (fold) value is on record for CN(C)[C@@H]1CCN(C(=O)N(Cc2ccc(-c3nnc(C(F)(F)F)o3)cc2F)c2cccc(Cl)c2F)C1 ? 46

Give the measured HDAC6 selectivity (fold) of O=C(N1CCS(=O)(=O)CC1)N(Cc1ccc(-c2nnc(C(F)(F)F)o2)cn1)c1ccccc1 . 132

Report HDAC6 selectivity (fold) for O=C(NCCN1CCN(c2noc3ccccc23)CC1)N(Cc1ccc(-c2nnc(C(F)F)o2)cc1F)c1ccccc1 please. 31

Consider the molecule O=C(NCCN1CCN(c2ccccn2)CC1)N(Cc1ccc(-c2nnc(C(F)F)o2)cc1F)c1ccccc1 and give its measured HDAC6 selectivity (fold). 73

Give its HDAC6 selectivity (fold) value. Item: O=C(N1CCOCC1)N(Cc1ccc(-c2nnc(C(F)F)o2)cn1)c1cccc(F)c1 461

Suppose we examine the molecule O=C(N1CCS(=O)(=O)CC1)N(Cc1ccc(-c2nnc(C(F)F)o2)cn1)c1cccc(Cl)c1 ; what HDAC6 selectivity (fold) value has been reported? 645

Any idea what its HDAC6 selectivity (fold) is? The molecule is O=C(N1CCS(=O)(=O)CC1)N(Cc1ccc(-c2nnc(C(F)F)o2)cc1F)c1ccc(F)cn1 246

So what does the record say about HDAC6 selectivity (fold) for COc1ccc(N(Cc2ccc(-c3nnc(C(F)(F)F)o3)cc2)C(=O)N2CCS(=O)(=O)CC2)cc1 ? 17

Find the recorded HDAC6 selectivity (fold) belonging to O=C(N1CCN(c2ccccn2)CC1)N(Cc1ccc(-c2nnc(C(F)(F)F)o2)cc1)c1ccccc1 and report it. 30

====

Biological target: human recombinant HDAC6 (Homo sapiens, UniProt Q9UBN7)
Construct: purchased Calbiochem 382180
Test: HDAC6 enzyme activity inhibition assay (HDAC Fluorimetric Drug Discovery Kit)
Assay type: biochemical
Conditions: HDAC6 over HDAC1
Method: In order to examine the HDAC6 selectivity of the compounds of formula I of the present invention by HDAC1 and HDAC6 enzymatic activity inhibition assays, an experiment was performed using a conventional substance as a control. HDAC enzyme activity was measured using a HDAC Fluorimetric Drug Discovery Kit (BML-AK511, 516, Enzo Life Science). […] Based on the resulting values, each IC5, value was calculated using GraphPad Prism4.0 program.
attribute measured: HDAC6 selectivity (fold)
Expressed in fold, but write only the number.

Need HDAC6 selectivity (fold), item Cc1cccc(N(Cc2ccc(-c3nnc(C(F)(F)F)o3)cc2)C(=O)N2CCS(=O)(=O)CC2)c1 [Compound 21442] 77

Name the recorded HDAC6 selectivity (fold) for O=C(N1CCOCC1)N(Cc1c(F)cc(-c2nnc(C(F)(F)F)o2)cc1F)c1ccccc1 [Compound 21431] . 39

# query: HDAC6 selectivity (fold) of entry CCN1CCN(CCNC(=O)N(Cc2ccc(-c3nnc(C(F)F)o3)cc2F)c2ccccc2)CC1 [Compound 21994] 81

For the compound shown here, O=C(NCCN1CCC[C@H]1C(F)(F)F)N(Cc1ccc(-c2nnc(C(F)F)o2)cc1F)c1ccccc1 [Compound 21988] , give the reported HDAC6 selectivity (fold). 33

I have this compound here, O=C(N1CC2(COC2)C1)N(Cc1ccc(-c2nnc(C(F)F)o2)cn1)c1ccccc1 [Compound 21566] , and I need its recorded HDAC6 selectivity (fold). 526

May I ask what HDAC6 selectivity (fold) has been recorded for O=C(N1CCOCC1)N(Cc1ccc(-c2nnc(C(F)F)o2)cc1F)c1ccc(F)cc1 [Compound 21841] ? 382

Which measured HDAC6 selectivity (fold) value corresponds to O=C(N1CCOCC1)N(Cc1ccc(-c2nnc(C(F)(F)F)o2)cn1)c1ccc(Cl)cc1 [Compound 21848] ? 161

HDAC6 selectivity (fold) lookup needed for CS(=O)(=O)N1CC2(CCN(C(=O)N(Cc3ccc(-c4nnc(C(F)(F)F)o4)cc3)c3ccccc3)CC2)C1 [Compound 21419] , thanks. 130

Reported HDAC6 selectivity (fold) for O=C(N1CCN(C2COC2)CC1)N(Cc1ccc(-c2nnc(C(F)F)o2)cn1)c1ccc(F)cc1 [Compound 21941] : what is it? 446
